Tested on: A498 renal
PROTOCOL_NOTES: NCI-60 one-dose screen, 48 h (100 = growth as untreated, 0 = no growth, -100 = all killed)
REPORTED_CONDITIONS: 10 µM
Compounds without any hit were thinned out: in the full panel of roughly 83,000, 20% have a hit.
Please use the following growth ranges when assigning a class: LOW = under 30%, MID = from 30% up to 90%, HIGH = 90% and over

[
  {
    "MOLECULE": "CC[C@H](C)[C@H](NC(=O)[C@H]1CCCCN1C)C(=O)N(C)[C@H](C[C@@H](OC(C)=O)c1cccc(C(=O)N[C@@H](Cc2ccccc2)C[C@H](C)C(=O)O)n1)C(C)C",
    "TARGET_OR_TEST_SYSTEM": "A498 renal",
    "GROUP": "LOW"
  },
  {
    "MOLECULE": "O=C(NCCN1CC1)C(=O)NCCN1CC1",
    "TARGET_OR_TEST_SYSTEM": "A498 renal",
    "GROUP": "HIGH"
  },
  {
    "MOLECULE": "COc1ccc(C2=CC(c3ccc(OC)c(OC)c3)c3c(c4ccccc4oc3=O)O2)cc1OC (stereo unspecified)",
    "TARGET_OR_TEST_SYSTEM": "A498 renal",
    "GROUP": "LOW"
  },
  {
    "MOLECULE": "CCCCCCCC[n+]1ccc2ccccc2c1",
    "TARGET_OR_TEST_SYSTEM": "A498 renal",
    "GROUP": "HIGH"
  },
  {
    "MOLECULE": "COc1ccc([As]=[As]c2ccc(OC)c(NCS(=O)(=O)O)c2)cc1NCS(=O)(=O)O (stereo unspecified)",
    "TARGET_OR_TEST_SYSTEM": "A498 renal",
    "GROUP": "LOW"
  },
  {
    "MOLECULE": "CC1(C)N=C(N)N=C(N)N1c1ccc(CCCCc2ccc(Cl)c(S(=O)(=O)F)c2)c(Cl)c1",
    "TARGET_OR_TEST_SYSTEM": "A498 renal",
    "GROUP": "MID"
  },
  {
    "MOLECULE": "C[C@@]1(CCCCCCCCCc2ccc(O)cc2)C[C@]2(C)OC(=O)C[C@@H]2OO1",
    "TARGET_OR_TEST_SYSTEM": "A498 renal",
    "GROUP": "HIGH"
  },
  {
    "MOLECULE": "COc1cc(/C=C/[N+](=O)[O-])cc(OC)c1",
    "TARGET_OR_TEST_SYSTEM": "A498 renal",
    "GROUP": "LOW"
  },
  {
    "MOLECULE": "CC[C@]12C=CCN3CC[C@@]4(c5ccc(OC)cc5N(C)[C@H]4[C@@](O)(C(=O)OC)[C@@H]1OC(=O)CCCC[P+](c1ccccc1)(c1ccccc1)c1ccccc1)[C@@H]32",
    "TARGET_OR_TEST_SYSTEM": "A498 renal",
    "GROUP": "MID"
  },
  {
    "MOLECULE": "CC1(C)N=C(N)N=C(N)N1c1cccc(CCCCc2ccc(Cl)c(S(=O)(=O)F)c2)c1",
    "TARGET_OR_TEST_SYSTEM": "A498 renal",
    "GROUP": "MID"
  },
  {
    "MOLECULE": "CCCCCCCCCCCCCCCCCCOc1ccccc1COP(=O)(O)OOCC[N+](C)(C)C",
    "TARGET_OR_TEST_SYSTEM": "A498 renal",
    "GROUP": "MID"
  },
  {
    "MOLECULE": "CC1=C(O)[C@@](C)(CCCCC[C@H](C)CCCCc2ccc(O)cc2)OOC1=O",
    "TARGET_OR_TEST_SYSTEM": "A498 renal",
    "GROUP": "HIGH"
  },
  {
    "MOLECULE": "O=C1CNC(c2ccccc2)c2cc(Cl)ccc2N1 (stereo unspecified)",
    "TARGET_OR_TEST_SYSTEM": "A498 renal",
    "GROUP": "HIGH"
  },
  {
    "MOLECULE": "COC(=O)C12CC(NC(=O)c3csc([C@@H](C[C@H](C(C)C)N(C)C(=O)[C@@H](NC(=O)[C@H]4CCCCN4C)C(C)C)OC(C)=O)n3)(C1)C2",
    "TARGET_OR_TEST_SYSTEM": "A498 renal",
    "GROUP": "LOW"
  },
  {
    "MOLECULE": "CCCc1cc(O)c2c3c(c(=O)oc2c1)CN(C)CC3",
    "TARGET_OR_TEST_SYSTEM": "A498 renal",
    "GROUP": "LOW"
  },
  {
    "MOLECULE": "CC(=O)O[C@H]1C(=O)[C@@]2(C)[C@H]([C@H](OC(=O)c3ccccc3)[C@]3(O)C[C@H](OC(=O)[C@H](OC(=O)OC[C@@H]4COC(C)(C)O4)[C@@H](NC(=O)c4ccccc4)c4ccccc4)C(C)=C1C3(C)C)[C@]1(OC(C)=O)CO[C@@H]1C[C@@H]2O",
    "TARGET_OR_TEST_SYSTEM": "A498 renal",
    "GROUP": "LOW"
  },
  {
    "MOLECULE": "CNCc1cccnc1",
    "TARGET_OR_TEST_SYSTEM": "A498 renal",
    "GROUP": "HIGH"
  },
  {
    "MOLECULE": "CC(=O)OCC1O[C@@H]([S-])C(OC(C)=O)[C@H](OC(C)=O)[C@@H]1OC(C)=O.[Au+].c1ccc(CN2[CH-]N(Cc3ccccc3)C(c3ccccc3)=C2c2ccccc2)cc1",
    "TARGET_OR_TEST_SYSTEM": "A498 renal",
    "GROUP": "MID"
  },
  {
    "MOLECULE": "Oc1c(CCl)cc(Cl)cc1CCl",
    "TARGET_OR_TEST_SYSTEM": "A498 renal",
    "GROUP": "HIGH"
  },
  {
    "MOLECULE": "CNC(=O)Oc1ccc(C(C)(C)C)cc1OC(=O)NC",
    "TARGET_OR_TEST_SYSTEM": "A498 renal",
    "GROUP": "HIGH"
  },
  {
    "MOLECULE": "CC1(C)N=C(N)N=C(N)N1c1ccc(CCC(=O)Nc2ccc(S(=O)(=O)F)cc2)c(Cl)c1",
    "TARGET_OR_TEST_SYSTEM": "A498 renal",
    "GROUP": "MID"
  },
  {
    "MOLECULE": "CCCCCCCC[N+](C)(CCCCCCCC)CCCCCCCC",
    "TARGET_OR_TEST_SYSTEM": "A498 renal",
    "GROUP": "LOW"
  },
  {
    "MOLECULE": "CO[C@H]1CC[C@@]2(C)C(=CC[C@@H]3[C@@H]2CC[C@]2(C)C(=O)C(=O)C[C@@H]32)C1",
    "TARGET_OR_TEST_SYSTEM": "A498 renal",
    "GROUP": "MID"
  },
  {
    "MOLECULE": "COc1ccc(/C=C\\c2cc(OC)c(OC)c(OC)c2)cc1NC(=O)/C=C/c1cc(OC)c(OC)c(OC)c1",
    "TARGET_OR_TEST_SYSTEM": "A498 renal",
    "GROUP": "LOW"
  },
  {
    "MOLECULE": "Clc1cccc(NCOOC2(OOCNc3cccc(Cl)c3)CCCCC2)c1",
    "TARGET_OR_TEST_SYSTEM": "A498 renal",
    "GROUP": "MID"
  },
  {
    "MOLECULE": "COC(=O)[C@@H](C)C[C@H](Cc1ccc(F)cc1)NC(=O)c1csc([C@@H](C[C@H](C(C)C)N(C)C(=O)[C@@H](NC(=O)[C@H]2CCCCN2C)C2CC2)OC(C)=O)n1",
    "TARGET_OR_TEST_SYSTEM": "A498 renal",
    "GROUP": "LOW"
  },
  {
    "MOLECULE": "CC1=C(CCCOC(=O)CN)C2=C(C)C3(CC3)[C@@](C)(O)C(=O)C2=C1",
    "TARGET_OR_TEST_SYSTEM": "A498 renal",
    "GROUP": "HIGH"
  },
  {
    "MOLECULE": "COC(=O)[C@@H](C)C[C@H](Cc1ccccc1)NC(=O)c1csc([C@@H](C[C@H](C(C)C)N(C)C(=O)[C@@H](NC(=O)[C@H]2CCCCN2C)C2CC2)OC(C)=O)n1",
    "TARGET_OR_TEST_SYSTEM": "A498 renal",
    "GROUP": "LOW"
  },
  {
    "MOLECULE": "CC(=O)ONc1ccc([N+](=O)[O-])c(C(F)(F)F)c1",
    "TARGET_OR_TEST_SYSTEM": "A498 renal",
    "GROUP": "HIGH"
  },
  {
    "MOLECULE": "Nc1nc([Se])c2ncn(C3OC(CO)C(O)C3O)c2n1 (stereo unspecified)",
    "TARGET_OR_TEST_SYSTEM": "A498 renal",
    "GROUP": "HIGH"
  },
  {
    "MOLECULE": "O=P(Oc1ccc(Cl)cc1)(N1CC1)N1CC1",
    "TARGET_OR_TEST_SYSTEM": "A498 renal",
    "GROUP": "HIGH"
  }
]
